# Assay explanation: in vivo
# Design: species or system mice
# Measurement parameters: male, NOD.Cg-Rag1tm1Mom Il2rgtm1Wjl/SzJ (NRG), mouse, iv, total radioactivity, Ratio Tumor-to-Kidney
Where a SMILES comes first, the peptide text is derived from it. Bridges are numbered along the chain shown (N, C = ends). Side-chain parts run from the residue outwards. [ ]: non-standard residue; d: D form. The star is where a group is joined. X4 = O=C(O)CN1CCN(CC(=O)O)CCN(CC(=O)N[C@@H](CS(=O)(=O)O)C(=O)NCCCC[C@H](NC(=O)CNC(=O)CCCc2ccc(Cl)cc2)C(=O)*)CCN(CC(=O)O)CC1; X3 = O=C(O)CN1CCN(CC(=O)O)CCN(CC(=O)N[C@@H](CS(=O)(=O)O)C(=O)N[C@@H](CCCCNC(=O)CCCc2ccc(Br)cc2)C(=O)*)CCN(CC(=O)O)CC1; X5 = O=C(O)CN1CCN(CC(=O)O)CCN(CC(=O)N[C@@H](CS(=O)(=O)O)C(=O)N[C@@H](CCCCNC(=O)CCCc2ccc(Cl)cc2)C(=O)*)CCN(CC(=O)O)CC1; DOTA = O=C(O)CN1CCN(CC(=O)O)CCN(CC(=O)*)CCN(CC(=O)O)CC1; NMeLys(iPr) = CN[C@@H](CCCCNC(C)C)C(=O)O; 2Nal = N[C@@H](Cc1ccc2ccccc2c1)C(=O)O; Lys(iPr) = CC(C)NCCCC[C@H](N)C(=O)O; Cya = N[C@@H](CS(=O)(=O)O)C(=O)O
We label by threshold. Values of tissue to tissue ratio at 1 h strictly beneath 3 are satisfied. Values of 3 and up are not satisfied.

Look over these answered cases.
CC(C)NCCCC[C@H](NC(=O)[C@H]1CCC(=O)N[C@@H](CCCCNC(=O)[C@H](CS(=O)(=O)O)NC(=O)CN2CCN(CC(=O)O)CCN(CC(=O)O)CCN(CC(=O)O)CC2)C(=O)N[C@@H](Cc2ccc(O)cc2)C(=O)N(C)[C@@H](CCCCNC(C)C)C(=O)N[C@H](CCCNC(=N)N)C(=O)N[C@@H](Cc2ccc3ccccc3c2)C(=O)N[C@H](C)C(=O)N1)C(N)=O [[^68Ga]Ga-BL34N1, metal not drawn] (K([Cya-DOTA])Y[NMeLys(iPr)][dR][2Nal][dA][dE][Lys(iPr)]-NH2; lactam N-7) | not satisfied
CC(C)NCCCC[C@H](NC(=O)[C@H]1CCC(=O)N[C@@H](CCCCNC(=O)[C@H](CCCCNC(=O)[C@H](CS(=O)(=O)O)NC(=O)CN2CCN(CC(=O)O)CCN(CC(=O)O)CCN(CC(=O)O)CC2)NC(=O)CNC(=O)CCCc2ccc(Cl)cc2)C(=O)N[C@@H](Cc2ccc(O)cc2)C(=O)N[C@@H](CCCCNC(C)C)C(=O)N[C@H](CCCNC(=N)N)C(=O)N[C@@H](Cc2ccc3ccccc3c2)C(=O)N[C@H](C)C(=O)N1)C(N)=O [[68Ga]Ga-BL34T1, metal not drawn] (K(X4)Y[Lys(iPr)][dR][2Nal][dA][dE][Lys(iPr)]-NH2; lactam N-7) | satisfied
CC(C)NCCCC[C@H](NC(=O)[C@H]1CCC(=O)N[C@@H](CCCCNC(=O)[C@H](CCCCNC(=O)CCCc2ccc(Br)cc2)NC(=O)[C@H](CS(=O)(=O)O)NC(=O)CN2CCN(CC(=O)O)CCN(CC(=O)O)CCN(CC(=O)O)CC2)C(=O)N[C@@H](Cc2ccc(O)cc2)C(=O)N[C@@H](CCCCNC(C)C)C(=O)N[C@H](CCCNC(=N)N)C(=O)N[C@@H](Cc2ccc3ccccc3c2)C(=O)N[C@H](C)C(=O)N1)C(N)=O [[^177Lu]Lu-BL34L20, metal not drawn] (K(X3)Y[Lys(iPr)][dR][2Nal][dA][dE][Lys(iPr)]-NH2; lactam N-7) | satisfied
CC(C)NCCCC[C@H](NC(=O)[C@H]1CCC(=O)N[C@@H](CCCCNC(=O)[C@H](CCCCNC(=O)CCCc2ccc(Cl)cc2)NC(=O)[C@H](CS(=O)(=O)O)NC(=O)CN2CCN(CC(=O)O)CCN(CC(=O)O)CCN(CC(=O)O)CC2)C(=O)N[C@@H](Cc2ccc(O)cc2)C(=O)N[C@@H](CCCCNC(C)C)C(=O)N[C@H](CCCNC(=N)N)C(=O)N[C@@H](Cc2ccc3ccccc3c2)C(=O)N[C@H](C)C(=O)N1)C(N)=O [[^68Ga]Ga-BL34L16, metal not drawn] (K(X5)Y[Lys(iPr)][dR][2Nal][dA][dE][Lys(iPr)]-NH2; lactam N-7) | satisfied

Okay, now this compound:
Answer whether the compound CC(C)NCCCC[C@H](NC(=O)[C@@H]1CCSc2c3cccc([N+](=O)[O-])c3cn2[C@@H](CCCCNC(=O)[C@H](CS(=O)(=O)O)NC(=O)CN2CCN(CC(=O)O)CCN(CC(=O)O)CCN(CC(=O)O)CC2)C(=O)CC(Cc2ccc(O)cc2)C(=O)N[C@@H](CCCCNC(C)C)C(=O)N[C@H](CCCNC(=N)N)C(=O)N[C@@H](Cc2ccc3ccccc3c2)C(=O)N[C@H](C)C(=O)N1)C(N)=O (some centres unmarked) [[^68Ga]Ga-3NOPA-BL34L2, metal not drawn] has tissue to tissue ratio at 1 h strictly less than 3
satisfied

* * *

The entries below come with measured tissue uptake at 24 h values attached.
# Assay explanation: in vivo
# Parameters: species or system mice
# Measurement parameters: male, NOD.Cg-Rag1tm1Mom Il2rgtm1Wjl/SzJ (NRG), mouse, iv, total radioactivity, Biodistribution: Heart
Where a SMILES comes first, the peptide text is derived from it. Bridges are numbered along the chain shown (N, C = ends). [ ]: non-standard residue; d: D form. The star is where a group is joined. X3 = O=C(O)CN1CCN(CC(=O)O)CCN(CC(=O)N[C@@H](CS(=O)(=O)O)C(=O)N[C@@H](CCCCNC(=O)CCCc2ccc(Br)cc2)C(=O)*)CCN(CC(=O)O)CC1; X1 = O=C(O)CN1CCN(CC(=O)O)CCN(CC(=O)N[C@@H](CS(=O)(=O)O)C(=O)N[C@@H](CCCCNC(=O)CCCc2ccc(I)cc2)C(=O)*)CCN(CC(=O)O)CC1; 2Nal = N[C@@H](Cc1ccc2ccccc2c1)C(=O)O; Lys(iPr) = CC(C)NCCCC[C@H](N)C(=O)O
Give the value, in units of %ID/g, as a plain number.

Please fill in: tissue uptake at 24 h reported for CC(C)NCCCC[C@H](NC(=O)[C@H]1CCC(=O)N[C@@H](CCCCNC(=O)[C@H](CCCCNC(=O)CCCc2ccc(Br)cc2)NC(=O)[C@H](CS(=O)(=O)O)NC(=O)CN2CCN(CC(=O)O)CCN(CC(=O)O)CCN(CC(=O)O)CC2)C(=O)N[C@@H](Cc2ccc(O)cc2)C(=O)N[C@@H](CCCCNC(C)C)C(=O)N[C@H](CCCNC(=N)N)C(=O)N[C@@H](Cc2ccc3ccccc3c2)C(=O)N[C@H](C)C(=O)N1)C(N)=O [[^177Lu]Lu-BL34L20, metal not drawn] (K(X3)Y[Lys(iPr)][dR][2Nal][dA][dE][Lys(iPr)]-NH2; lactam N-7) = 0.76

Recorded result, CC(C)NCCCC[C@H](NC(=O)[C@H]1CCC(=O)N[C@@H](CCCCNC(=O)[C@H](CCCCNC(=O)CCCc2ccc(I)cc2)NC(=O)[C@H](CS(=O)(=O)O)NC(=O)CN2CCN(CC(=O)O)CCN(CC(=O)O)CCN(CC(=O)O)CC2)C(=O)N[C@@H](Cc2ccc(O)cc2)C(=O)N[C@@H](CCCCNC(C)C)C(=O)N[C@H](CCCNC(=N)N)C(=O)N[C@@H](Cc2ccc3ccccc3c2)C(=O)N[C@H](C)C(=O)N1)C(N)=O [[^177Lu]Lu-BL34L11, metal not drawn] (K(X1)Y[Lys(iPr)][dR][2Nal][dA][dE][Lys(iPr)]-NH2; lactam N-7) , tissue uptake at 24 h: 1.8

* * *

# Assay explanation: in vivo
# Parameters: species or system mice
# Measurement parameters: male, NOD.Cg-Rag1tm1Mom Il2rgtm1Wjl/SzJ (NRG), mouse, iv, total radioactivity, Ratio Tumor-to-Bone
Assay endpoint: tissue to tissue ratio at 1 h
Reply: number alone, nothing else.

Query CC(C)NCCCC[C@H](NC(=O)[C@@H]1CCSc2c3cccc([N+](=O)[O-])c3cn2[C@@H](CCCCNC(=O)[C@H](CS(=O)(=O)O)NC(=O)CN2CCN(CC(=O)O)CCN(CC(=O)O)CCN(CC(=O)O)CC2)C(=O)CC(Cc2ccc(O)cc2)C(=O)N[C@@H](CCCCNC(C)C)C(=O)N[C@H](CCCNC(=N)N)C(=O)N[C@@H](Cc2ccc3ccccc3c2)C(=O)N[C@H](C)C(=O)N1)C(N)=O (stereo partly shown) [[^68Ga]Ga-3NOPA-BL34L2, metal not drawn] yields tissue to tissue ratio at 1 h of 15.5
